The measurements presented in this section are drawn from paper PMC6522510.

System: MV4-11
Type: cell-based
condition: Homo sapiens, 72 h, Cell Titer Glo
measured attribute: pIC50
Lab note: report pIC50 as minus log10 of the concentration in molar units, number only.

For Nc1nc(Cl)nc2c1ncn2[C@@H]1O[C@H](CO)[C@@H](O)[C@@H]1F [Clofarabine, clofarabine, reference compound] , what is its reported pIC50? 7.15

* * *

Measured M07e %inh of individual entries
System: M07e
Design: species or system AML cell lines (8); Primary HTS, single concentration about 10 uM, Cell Titer Glo viability; log10 luminescence, per cent inhibition relative to cycloheximide control
condition: 72 h, relative to cycloheximide control, log10 luminescence; inhibitor
Field: numeric (%). Do not append units.

The cases that follow already have their M07e %inh on record.
NS(=O)(=O)c1cccc(-c2ccc3c(NC(=O)C4CC4)n[nH]c3c2)c1 | -1.196
CNCC#Cc1c(F)ccc2c1/C(=C/c1[nH]ccc1OC)C(=O)N2 | 73.32
CC1=C(C(=O)Nc2ccc3[nH]ncc3c2)C(c2ccc3ccccc3c2)CC(=O)N1 (stereo not shown) | 1.439
COc1cccc(-n2ncc3c(N/N=C/c4ccc(C)cc4)ncnc32)c1 | -2.359

For "CN1CCN(CCc2cccc(C(=O)c3cnn(-c4ccc(F)cc4)c3N)c2)CC1" , what is its reported M07e %inh? 1.993

For "CC(C)C[C@H](N)[C@](O)(Cc1cnc[nH]1)C(=O)O" , what is its reported M07e %inh? 1.038

For CC(=O)O[C@H]1C[C@@H]2CC[C@@H]3[C@H](CC[C@@]4(C)[C@H]3C[C@H](N3CC[N+](C)(C)CC3)[C@@H]4OC(C)=O)[C@@]2(C)C[C@@H]1N1CC[N+](C)(C)CC1 [SJ000555714-1, PIPECURIUM BROMIDE] , what is its reported M07e %inh? -1.4
